# IC50 listing for each entry below
- Experimental system: FAAH (Homo sapiens)
- Sequence (O00519 whole entry): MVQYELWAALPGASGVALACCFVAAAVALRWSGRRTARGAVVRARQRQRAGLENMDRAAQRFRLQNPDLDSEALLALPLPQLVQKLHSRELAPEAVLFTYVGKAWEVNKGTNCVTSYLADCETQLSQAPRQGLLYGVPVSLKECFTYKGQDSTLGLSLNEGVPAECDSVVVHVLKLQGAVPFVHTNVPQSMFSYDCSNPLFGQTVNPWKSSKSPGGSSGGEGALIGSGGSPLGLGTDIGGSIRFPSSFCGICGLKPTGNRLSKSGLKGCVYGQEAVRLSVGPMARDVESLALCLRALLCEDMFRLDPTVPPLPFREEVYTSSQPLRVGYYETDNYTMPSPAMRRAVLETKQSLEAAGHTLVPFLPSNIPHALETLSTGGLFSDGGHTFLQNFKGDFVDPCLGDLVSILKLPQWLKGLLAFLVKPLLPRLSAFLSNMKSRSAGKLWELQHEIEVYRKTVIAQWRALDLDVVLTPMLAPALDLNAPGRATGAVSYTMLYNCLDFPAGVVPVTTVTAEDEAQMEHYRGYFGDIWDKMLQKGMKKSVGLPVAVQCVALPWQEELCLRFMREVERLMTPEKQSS
- Measurement description: Assay Method 1: FAAH assay, 3H-anandamide hydrolysis in homogenate of T84 cells or SK-N-MC cells transfected with human FAAH
- Experimental conditions: average of results, > = solubility limit or highest concentration tested

>  <Molecule>
O=C(Nc1nn[nH]n1)N1CCN(Cc2ccc3c(c2)OCO3)CC1 [Example 180]

>  <Relation operator>
>

>  <IC50 / nM>
10000

$$$$
>  <Molecule>
O=C(Nc1ccon1)N1CCN(Cc2ccc3ccccc3n2)CC1 [Example 146]

>  <Relation operator>
=

>  <IC50 / nM>
3000

$$$$
>  <Molecule>
O=C(Nc1nn[nH]n1)N1CCN(Cc2cc3ccccc3s2)CC1 [Example 183]

>  <Relation operator>
=

>  <IC50 / nM>
1400

$$$$
>  <Molecule>
O=C(Nc1ccon1)N1CCN(Cc2cc3ccccc3s2)CC1 [Example 142]

>  <Relation operator>
=

>  <IC50 / nM>
2000

$$$$
>  <Molecule>
O=C(Nc1ccon1)N1CCN(Cc2cccc(Oc3ccccc3Cl)c2)CC1 [Example 140]

>  <Relation operator>
=

>  <IC50 / nM>
700

$$$$
>  <Molecule>
O=C(Nc1cnccn1)N1CCN(Cc2cccc(Oc3ccc4c(c3)OC(F)(F)O4)c2)CC1 [Example 237]

>  <Relation operator>
=

>  <IC50 / nM>
5

$$$$
>  <Molecule>
O=C(Nc1cccnn1)N1CCN(Cc2ccc3ccccc3c2)CC1 [Example 200]

>  <Relation operator>
=

>  <IC50 / nM>
38

$$$$

* * *

Measured pIC50 accompanies every entry in the list below.
- Experimental system: rat FAAH (Rattus norvegicus)
- Sequence (P97612 1-579): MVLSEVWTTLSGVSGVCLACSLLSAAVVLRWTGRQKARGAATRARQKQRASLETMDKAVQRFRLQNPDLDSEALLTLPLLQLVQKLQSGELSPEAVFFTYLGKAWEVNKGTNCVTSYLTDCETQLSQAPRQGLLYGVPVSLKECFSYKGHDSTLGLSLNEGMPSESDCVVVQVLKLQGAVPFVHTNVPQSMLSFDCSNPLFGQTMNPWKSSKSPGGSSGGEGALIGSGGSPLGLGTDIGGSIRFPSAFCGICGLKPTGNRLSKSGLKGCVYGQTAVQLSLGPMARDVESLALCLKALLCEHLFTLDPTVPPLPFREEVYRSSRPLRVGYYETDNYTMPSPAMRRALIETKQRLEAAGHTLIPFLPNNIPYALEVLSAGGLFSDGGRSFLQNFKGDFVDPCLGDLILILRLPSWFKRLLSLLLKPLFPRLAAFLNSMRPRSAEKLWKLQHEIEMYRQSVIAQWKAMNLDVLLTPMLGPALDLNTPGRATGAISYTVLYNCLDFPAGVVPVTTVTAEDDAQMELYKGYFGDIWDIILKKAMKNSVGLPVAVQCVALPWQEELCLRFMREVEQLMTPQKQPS
- Measurement description: Assay Method 2: FAAH assay, 3H-anandamide hydrolysis in homogenate of SK-N-MC cells transfected with rat FAAH
- Experimental conditions: average of results, > = solubility limit or highest concentration tested
pIC50: −log10 of the molar value.
Quantity name: pIC50

>  <Smiles str>
O=C(Nc1noc2ccccc12)N1CCN(Cc2cccc(C#CC3CCCC3)c2)CC1

>  <Measured value>
7.30

$$$$
>  <Smiles str>
O=C(Nc1nnn[nH]1)N1CCN(Cc2cnc3ccccc3c2)CC1

>  <Measured value>
5.22

$$$$
>  <Smiles str>
O=C(Nc1ccn[nH]1)N1CCC(Cc2ccc3ccccc3c2)CC1

>  <Measured value>
7.20

$$$$
>  <Smiles str>
O=C(Nc1noc2ccccc12)N1CCN(Cc2cccc(C#Cc3ccsc3)c2)CC1

>  <Measured value>
7.19

$$$$
